- Test system: A2780 ovarian cells
- assay-notes: A2780 Ovarian Cell Proliferation Assay in Lipid Reduced Medium, without Palmitate
- Type: cell-based
- details: Homo sapiens, A2780; lipid reduced medium, without palmitate, 96 h, MTT; read-out: Proliferation A2780 w/o Palmitate pIC50 (converted)
- Experimental: The biological assays described below correspond to comparative assays for ovarian cell proliferation. […] Compounds active in the absence of palmitate would not be expected to be active in the control. 2500 cells were seeded in a 96-well clear well plate in 200 μL RPMI1640 with 10% Fetal Calf Serum (Hyclone), and incubated at 37° C., 5% CO2. Blanks were wells without cells. […] The absorbance was measured at 544 nm on a SPECTRAMAX. […]
Please use the following IC50 ranges when assigning a class: b0: < 50 nM; b1: ≥ 50 nM and < 200 nM; b2: ≥ 200 nM

Past entries and their recorded results:
Tag the class for `COc1ccc(C(=O)Nc2cc(C(=O)N3CCC(c4ccc(-c5cnn(C)c5)cc4)CC3)ccc2C)cc1`
b1

Tag the class for `COCCN(C)c1ccc(C(=O)N2CCC(c3ccc(-c4cnn(C)c4)cc3)CC2)cc1NC(=O)C1CC1`
b2

Tag the class for `Cc1ccc(C(=O)N2CCC(c3ccc(-c4cnn(C)c4)cc3)CC2)cc1NC(=O)c1nccs1`
b2

Tag the class for `CCC(CC)C(=O)Nc1cc(C(=O)N2CC(c3ccc(-c4cnn(C)c4)cc3)C2)ccc1C`
b0

Tag the class for `Cc1ccc(C(=O)N2CCC(c3ccc(-c4cnn(C)c4)cc3)CC2)cc1NC(=O)c1ccc(Cl)cc1`
b1

Others:
Tag the class for `Cc1ccc(C(=O)N2CCC(c3ccc(-c4cnn(C)c4)cc3)CC2)cc1NC(=O)c1ccc(C#N)cc1F`
b0

Tag the class for Cc1ccc(C(=O)N2CCC(c3ccc(-c4cnn(C)c4)cc3)CC2)cc1NC(=O)C1CCN(C(=O)C2CC2)C1 (centres unmarked)
b1

Tag the class for `CCCCCN1CCC(C(=O)Nc2cc(C(=O)N3CCC(c4ccc(-c5cnn(C)c5)cc4)CC3)ccc2C)CC1`
b1

Tag the class for `Cc1ccc(C(=O)N2CCC(c3ccc(-c4cnn(C)c4)cc3)CC2)cc1NC(=O)c1cnc(NC2CCC2)nc1`
b0

Tag the class for `Cc1ccc(C(=O)N2CC(c3ccc(-c4cnn(C)c4)cc3)C2)cc1NC(=O)C1CC1`
b1

Tag the class for `Cc1ccc(C(=O)N2CCC(c3ccc(-c4cnn(C)c4)cc3)CC2)cc1NC(=O)c1ccc(N(C)C(C)C)nc1`
b0

Tag the class for `Cc1ccc(C(=O)N2CCC(c3ccc(-c4cccc(F)c4)cc3)CC2)cc1NC(=O)c1ccc(NC(C)C)nc1`
b2

Tag the class for `Cc1ccc(C(=O)N2CCC(c3ccc(-c4ccco4)cc3)CC2)cc1NC(=O)c1ccc(NC(C)C)nc1`
b2

Tag the class for `Cc1ccc(C(=O)N2CCC(c3ccc(-c4cnn(C)c4)cc3)CC2)cc1NC(=O)[C@@H]1CCCN1C`
b2

Tag the class for `Cc1ccc(C(=O)N2CC(c3ccc(-c4ccnn4C)cc3)C2)cc1NC(=O)c1ccc(N2CCCCC2)nc1`
b0

Tag the class for `CCc1ccc(C(=O)N2CCC(c3ccc(-c4cnn(C)c4)cc3)CC2)cc1NC(=O)c1ccc(NC(C)C)nc1`
b0
